measurement-description: Pharmacokinetics in male CD-1 mice
Type: in vivo
test-context: mouse; PO 30 mg/kg, plasma, male CD-1 mice
Form field: Tmax (one value per entry).
Write down the numeric answer in min and omit the unit.

- compound: "CNc1c(C(N)=O)c2ccccn2c1C(=O)c1ccc(F)cc1 [Compound A]"
  quantity-kind: "Tmax"
  assay-value: 30

# ---- query compound ----
Measured Tmax, Nc1ncc(-c2nc3ccccc3o2)c(-c2ccncc2)n1 [Comparative Compound 324] : 30

---

measurement-description: Pharmacokinetics in male CD-1 mice
Format: in vivo
test-context: male, CD-1, mouse, plasma, po, 3 mg/kg, PO 3 mg/kg, plasma, male CD-1 mice; read-out: AUC0-t
Form field: AUC(0-t) (one value per entry).
Write down the numeric answer in ng·h/mL and omit the unit.

- molecule: "CNc1c(C(N)=O)c2ccccn2c1C(=O)c1ccc(F)cc1 [Compound A]"
  assay-value: 32.4

# ---- query molecule ----
Measured AUC(0-t), Nc1ncc(-c2nc3ccccc3o2)c(-c2ccncc2)n1 [Comparative Compound 324] : 8.66
